# Test system: NCI-H3122 (Lung Adenocarcinoma)
# protocol description: Bliss excess, mean over the matrix (fraction); higher = more synergy
Below, each entry is listed alongside its reported Bliss excess.
parameter measured: Bliss excess

CC1(C)CCC(CN2CCN(c3ccc(C(=O)NS(=O)(=O)c4ccc(NCC5CCOCC5)c([N+](=O)[O-])c4)c(Oc4cnc5[nH]ccc5c4)c3)CC2)=C(c2ccc(Cl)cc2)C1 [Venetoclax] + C[C@@H](Nc1cc(F)cc(F)c1)c1cc(C(=O)N(C)C)cc2c(=O)cc(N3CCOCC3)oc12 [AZD8186] (first compound max 1 µM, 7x7, partner max 3 µM)	-0.0311
COc1cccc(OCCCN)c1-c1cc(Nc2cnc(C#N)cn2)n[nH]1 [Prexasertib] + CN(C)CCCOc1ccc(-c2ccc3ncc4c(c3c2)n(C2CCOCC2)c(=O)n4C)cn1 [AZD0156] (first compound max 1 µM, 7x7, partner max 1 µM)	0.0204

----------
# Tested on: SJSA-1 (Osteosarcoma)
# protocol description: combination Emax (second highest fraction inhibited in the dose matrix, 72 h); higher = more inhibition; extreme values may be limits of the assay
Recorded combination Emax values for a group of molecules are listed next.
parameter measured: combination Emax

CS(=O)(=O)CCNCc1ccc(-c2ccc3ncnc(Nc4ccc(OCc5cccc(F)c5)c(Cl)c4)c3c2)o1 [Lapatinib] + Cn1cnc2c(F)c(Nc3ccc(Br)cc3Cl)c(C(=O)NOCCO)cc21 [Selumetinib] (first compound max 10 µM, 7x7, partner max 10 µM)	0.422
CN(C)CCCOc1ccc(-c2ccc3ncc4c(c3c2)n(C2CCOCC2)c(=O)n4C)cn1 [AZD0156] + C=CCn1c(=O)c2cnc(Nc3ccc(N4CCN(C)CC4)cc3)nc2n1-c1cccc(C(C)(C)O)n1 [AZD1775] (first compound max 1 µM, partner max 1 µM)	0.17

----------
# Test system: M059J (Glioblastoma)
# protocol description: Bliss excess, mean over the matrix (fraction); higher = more synergy
parameter measured: Bliss excess

CN(CCO)CC[C@H](CSc1ccccc1)Nc1ccc(S(=O)(=O)NC(=O)c2ccc(N3CCC([C@@H](O)c4ccccc4-c4ccc(Cl)cc4)CC3)cc2)cc1S(=O)(=O)C(F)(F)F [AZD4320] + C=CCn1c(=O)c2cnc(Nc3ccc(N4CCN(C)CC4)cc3)nc2n1-c1cccc(C(C)(C)O)n1 [AZD1775] (first compound max 1 µM, partner max 1 µM)	0.0448
CN(CCO)CC[C@H](CSc1ccccc1)Nc1ccc(S(=O)(=O)NC(=O)c2ccc(N3CCC([C@@H](O)c4ccccc4-c4ccc(Cl)cc4)CC3)cc2)cc1S(=O)(=O)C(F)(F)F [AZD4320] + CC(=O)O[C@H]1C(=O)[C@@]2(C)[C@H]([C@H](OC(=O)c3ccccc3)[C@]3(O)C[C@H](OC(=O)[C@H](O)[C@@H](NC(=O)c4ccccc4)c4ccccc4)C(C)=C1C3(C)C)[C@]1(OC(C)=O)CO[C@@H]1C[C@@H]2O [Paclitaxel] (first compound max 1 µM, 7x7, partner max 3 µM)	0.0756
N#Cc1cnc(Nc2cc(NC[C@H]3CNCCO3)c(C(F)(F)F)cn2)cn1 [SRA737] + C=CCn1c(=O)c2cnc(Nc3ccc(N4CCN(C)CC4)cc3)nc2n1-c1cccc(C(C)(C)O)n1 [AZD1775] (first compound max 10 µM, partner max 1 µM)	0.073
NC1(C(=O)N[C@@H](CCO)c2ccc(Cl)cc2)CCN(c2ncnc3[nH]ccc23)CC1 [Capivasertib] + CC(C)n1c(=O)n(C)c2cnc3cc(F)c(-c4ccc(OCCCN5CCCCC5)nc4)cc3c21 [AZD1390] (first compound max 10 µM, 7x7, partner max 0.3 µM)	0.0135
Cn1cnc2c(F)c(Nc3ccc(Br)cc3Cl)c(C(=O)NOCCO)cc21 [Selumetinib] + CCN(CCO)CCCOc1ccc2c(Nc3cc(CC(=O)Nc4cccc(F)c4)[nH]n3)ncnc2c1 [AZD2811] (first compound max 10 µM, 7x7, partner max 1 µM)	-0.033
Cc1cc2ncnn2cc1Nc1ncc2c(n1)n(C1CCOCC1)c(=O)n2C [AZD7648] + O=C(c1cc(Cc2n[nH]c(=O)c3ccccc23)ccc1F)N1CCN(C(=O)C2CC2)CC1 [Olaparib] (first compound max 10 µM, 7x7, partner max 10 µM)	-0.097
CN(CCO)CC[C@H](CSc1ccccc1)Nc1ccc(S(=O)(=O)NC(=O)c2ccc(N3CCC([C@@H](O)c4ccccc4-c4ccc(Cl)cc4)CC3)cc2)cc1S(=O)(=O)C(F)(F)F [AZD4320] + Cn1cnc2c(F)c(Nc3ccc(Br)cc3Cl)c(C(=O)NOCCO)cc21 [Selumetinib] (first compound max 1 µM, 7x7, partner max 3 µM)	-0.0289
NC1(C(=O)N[C@@H](CCO)c2ccc(Cl)cc2)CCN(c2ncnc3[nH]ccc23)CC1 [Capivasertib] + Cn1cnc2c(F)c(Nc3ccc(Br)cc3Cl)c(C(=O)NOCCO)cc21 [Selumetinib] (first compound max 10 µM, 7x7, partner max 10 µM)	-0.0162
O=C(c1cc(Cc2n[nH]c(=O)c3ccccc23)ccc1F)N1CCN(C(=O)C2CC2)CC1 [Olaparib] + Cc1c2c(nn1C)CSCc1cc(n(C)n1)CSc1cc(c3ccccc3c1)OCCCc1c(C(=O)O)n(C)c3c-2c(Cl)ccc13 [AZD5991] (first compound max 10 µM, 7x7, partner max 1 µM)	0.0008
C[C@@H](Oc1cc(-c2cnn(C3CCNCC3)c2)cnc1N)c1c(Cl)ccc(F)c1Cl [Crizotinib] + CC1=C(C(=CC=C1)Cl)NC(=O)C2=CN=C(S2)NC3=CC(=NC(=N3)C)N4CCN(CC4)CCO [Dasatinib] (first compound max 10 µM, 7x7, partner max 2 µM)	0.024
C[C@@H]1COCCN1c1cc(C2([S@](C)(=N)=O)CC2)nc(-c2ccnc3[nH]ccc23)n1 [AZD6738] + O=C(c1cc(Cc2n[nH]c(=O)c3ccccc23)ccc1F)N1CCN(C(=O)C2CC2)CC1 [Olaparib] (first compound max 10 µM, 7x7, partner max 10 µM)	0.0113
CCN(CCO)CCCOc1ccc2c(Nc3cc(CC(=O)Nc4cccc(F)c4)[nH]n3)ncnc2c1 [AZD2811] + O=C(c1cc(Cc2n[nH]c(=O)c3ccccc23)ccc1F)N1CCN(C(=O)C2CC2)CC1 [Olaparib] (first compound max 1 µM, 7x7, partner max 10 µM)	-0.0213
C=CCn1c(=O)c2cnc(Nc3ccc(N4CCN(C)CC4)cc3)nc2n1-c1cccc(C(C)(C)O)n1 [AZD1775] + O=C(c1cc(Cc2n[nH]c(=O)c3ccccc23)ccc1F)N1CCN(C(=O)C2CC2)CC1 [Olaparib] (first compound max 1 µM, partner max 10 µM)	0.0374

----------
Consider the following compounds and their measured combination Emax readings.
# System: DMS-114 (Small Cell Lung Carcinoma)
# protocol description: combination Emax (second highest fraction inhibited in the dose matrix, 72 h); higher = more inhibition; extreme values may be limits of the assay
parameter measured: combination Emax

COc1cccc(OCCCN)c1-c1cc(Nc2cnc(C#N)cn2)n[nH]1 [Prexasertib] + CN(C)CCCOc1ccc(-c2ccc3ncc4c(c3c2)n(C2CCOCC2)c(=O)n4C)cn1 [AZD0156] (first compound max 1 µM, 7x7, partner max 1 µM)	0.408
CCN(CCO)CCCOc1ccc2c(Nc3cc(CC(=O)Nc4cccc(F)c4)[nH]n3)ncnc2c1 [AZD2811] + C[C@@H]1COCCN1C2=NC(=NC(=C2)C3(CC3)[S@](=N)(=O)C)C4=C5C=CNC5=NC=C4 [AZD6738] (first compound max 1 µM, 7x7, partner max 10 µM)	0.435

----------
# Test system: H9 (T-Cell Non-Hodgkin's Lymphoma)
# protocol description: combination Emax (second highest fraction inhibited in the dose matrix, 72 h); higher = more inhibition; extreme values may be limits of the assay
Measured combination Emax accompanies every entry in the list below.
parameter measured: combination Emax

COc1cc2ncnc(Nc3ccc(F)c(Cl)c3)c2cc1OCCCN1CCOCC1 [Gefitinib] + CC(C)n1c(=O)n(C)c2cnc3cc(F)c(-c4ccc(OCCCN5CCCCC5)nc4)cc3c21 [AZD1390] (first compound max 10 µM, 7x7, partner max 0.3 µM)	0.47
COc1cccc(OCCCN)c1-c1cc(Nc2cnc(C#N)cn2)n[nH]1 [Prexasertib] + O=C(c1cc(Cc2n[nH]c(=O)c3ccccc23)ccc1F)N1CCN(C(=O)C2CC2)CC1 [Olaparib] (first compound max 1 µM, 7x7, partner max 10 µM)	1
COc1cc2c(cc1OCCCCCOc1cc3c(cc1OC)C(=O)N1C=C(C)C[C@H]1C=N3)N=C[C@@H]1CC(C)=CN1C2=O [SG3199] + O=C(c1cc(Cc2n[nH]c(=O)c3ccccc23)ccc1F)N1CCN(C(=O)C2CC2)CC1 [Olaparib] (first compound max 0.001 µM, 7x7, partner max 10 µM)	0.0468
COc1nnc2ccc(N3CCC(c4ccc(OCCN5CCN(C)C(=O)[C@H]5C)cc4)CC3)nn12 [AZD5153] + Cn1cnc2c(F)c(Nc3ccc(Br)cc3Cl)c(C(=O)NOCCO)cc21 [Selumetinib] (first compound max 1 µM, 7x7, partner max 10 µM)	1
CC1(C)CCC(CN2CCN(c3ccc(C(=O)NS(=O)(=O)c4ccc(NCC5CCOCC5)c([N+](=O)[O-])c4)c(Oc4cnc5[nH]ccc5c4)c3)CC2)=C(c2ccc(Cl)cc2)C1 [Venetoclax] + C[C@@H]1COCCN1C2=NC(=NC(=C2)C3(CC3)[S@](=N)(=O)C)C4=C5C=CNC5=NC=C4 [AZD6738] (first compound max 1 µM, 7x7, partner max 10 µM)	1
CC(=O)Nc1cccc(-n2c(=O)n(C3CC3)c(=O)c3c(Nc4ccc(I)cc4F)n(C)c(=O)c(C)c32)c1 [Trametinib] + Cc1nc(-c2cn3c(n2)-c2ccc(-c4cnn(C(C)(C)C(N)=O)c4)cc2OCC3)n(C(C)C)n1 [Taselisib] (first compound max 1 µM, 7x7, partner max 10 µM)	0.984
CN(C)CCCOc1ccc(-c2ccc3ncc4c(c3c2)n(C2CCOCC2)c(=O)n4C)cn1 [AZD0156] + C[C@@H]1COCCN1C2=NC(=NC(=C2)C3(CC3)[S@](=N)(=O)C)C4=C5C=CNC5=NC=C4 [AZD6738] (first compound max 1 µM, 7x7, partner max 10 µM)	0.972
CC1(C)CCC(CN2CCN(c3ccc(C(=O)NS(=O)(=O)c4ccc(NCC5CCOCC5)c([N+](=O)[O-])c4)c(Oc4cnc5[nH]ccc5c4)c3)CC2)=C(c2ccc(Cl)cc2)C1 [Venetoclax] + Cc1cc2ncnn2cc1Nc1ncc2c(n1)n(C1CCOCC1)c(=O)n2C [AZD7648] (first compound max 1 µM, 7x7, partner max 10 µM)	0.396
Cc1c2c(nn1C)CSCc1cc(n(C)n1)CSc1cc(c3ccccc3c1)OCCCc1c(C(=O)O)n(C)c3c-2c(Cl)ccc13 [AZD5991] + Cc1cc2ncnn2cc1Nc1ncc2c(n1)n(C1CCOCC1)c(=O)n2C [AZD7648] (first compound max 1 µM, 7x7, partner max 10 µM)	0.722
Cc1c2c(nn1C)CSCc1cc(n(C)n1)CSc1cc(c3ccccc3c1)OCCCc1c(C(=O)O)n(C)c3c-2c(Cl)ccc13 [AZD5991] + C1CN(CCC1(C(=O)N[C@@H](CCO)C2=CC=C(C=C2)Cl)N)C3=NC=NC4=C3C=CN4 [Capivasertib] (first compound max 1 µM, 7x7, partner max 3 µM)	0.847
CC(=O)c1c(C)c2cnc(Nc3ccc(N4CCNCC4)cn3)nc2n(C2CCCC2)c1=O [Palbociclib] + Cn1cnc2c(F)c(Nc3ccc(Br)cc3Cl)c(C(=O)NOCCO)cc21 [Selumetinib] (first compound max 10 µM, 7x7, partner max 10 µM)	0.956
CCN(CCO)CCCOc1ccc2c(Nc3cc(CC(=O)Nc4cccc(F)c4)[nH]n3)ncnc2c1 [AZD2811] + C[C@@H]1COCCN1C2=NC(=NC(=C2)C3(CC3)[S@](=N)(=O)C)C4=C5C=CNC5=NC=C4 [AZD6738] (first compound max 1 µM, 7x7, partner max 10 µM)	0.977
Cc1nc(Nc2ncc(C(=O)Nc3c(C)cccc3Cl)s2)cc(N2CCN(CCO)CC2)n1 [Dasatinib] + CC(=O)Nc1cccc(-n2c(=O)n(C3CC3)c(=O)c3c(Nc4ccc(I)cc4F)n(C)c(=O)c(C)c32)c1 [Trametinib] (first compound max 2 µM, 7x7, partner max 1 µM)	0.892
